assay: gastric ulceration test (ability to induce gastric ulceration, 4 days oral dosing); settings: in vivo
Measured Quantity: TD50 at 96 h (mg/kg)
Only the number, expressed in mg/kg, is required.

Give a short answer stating reported TD50 at 96 h for Cc1cc(CC(=O)NC(CCCCN)C(=O)O)n(C)c1C(=O)c1ccc(Cl)cc1 (stereo not shown) .
35.1

Give a short answer stating reported TD50 at 96 h for Cc1cc(CC(=O)NC(C)C(=O)O)n(C)c1C(=O)c1ccc(Cl)cc1 (stereo not shown) .
25.4

Give a short answer stating reported TD50 at 96 h for Cc1cc(CC(=O)NCC(=O)O)n(C)c1C(=O)c1ccc(Cl)cc1 .
21.1

Give a short answer stating reported TD50 at 96 h for Cc1cc(CC(=O)NC(CC(=O)O)C(=O)O)n(C)c1C(=O)c1ccc(Cl)cc1 (stereo not shown) .
71

Give a short answer stating reported TD50 at 96 h for Cc1cc(CC(=O)O)n(C)c1C(=O)c1ccc(Cl)cc1 [zomepirac, reference compound] .
13.8

Give a short answer stating reported TD50 at 96 h for Cc1cc(CC(=O)N[C@@H](CCC(N)=O)C(=O)O)n(C)c1C(=O)c1ccc(Cl)cc1 .
33.4

Give a short answer stating reported TD50 at 96 h for CSCCC(NC(=O)Cc1cc(C)c(C(=O)c2ccc(Cl)cc2)n1C)C(=O)O (stereo not shown) .
43.7

Source: patent US4585784A
